Listing of entries alongside the reported pKa.
- Run description: physchem

>  <Chem smiles>
CN1CC(F)(C#CC#Cc2cc3n(c2)C(=O)N(CC[C@](C)(C(=O)NO)S(C)(=O)=O)C3)C1

>  <pKa>
6.7

$$$$
>  <Chem smiles>
CN1CC(C#CC#Cc2cc3n(c2)C(=O)N(CC[C@](C)(C(N)=O)S(C)(=O)=O)C3)C1

>  <pKa>
8.4

$$$$
>  <Chem smiles>
CNC1(C#CC#Cc2cc3n(c2)C(=O)N(CC[C@](C)(C(=O)NO)S(C)(=O)=O)C3)CC1

>  <pKa>
6.5

$$$$
>  <Chem smiles>
CC(C)N1CC(C#CC#Cc2cc3n(c2)C(=O)N(CC[C@](C)(C(=O)NO)S(C)(=O)=O)C3)C1

>  <pKa>
8.3

$$$$
>  <Chem smiles>
C[C@@](CCN1Cc2cc(C#CC#CC3(CN)CC3)cn2C1=O)(C(=O)NO)S(C)(=O)=O

>  <pKa>
9.2

$$$$
>  <Chem smiles>
C[C@@](CCN1Cc2cc(C#CC#CC3CCN(C4COC4)CC3)cn2C1=O)(C(=O)NO)S(C)(=O)=O

>  <pKa>
6.2

$$$$
>  <Chem smiles>
CCN1CC(C#CC#Cc2cc3n(c2)C(=O)N(CC[C@](C)(C(=O)NO)S(C)(=O)=O)C3)C1

>  <pKa>
8.5

$$$$
>  <Chem smiles>
C[C@@](CCN1Cc2cc(C#CC#CC3CN(C4COC4)C3)cn2C1=O)(C(=O)NO)S(C)(=O)=O

>  <pKa>
5.5

$$$$

The reported measurements were obtained from ChEMBL document CHEMBL4321867.
